Target desc: human CYP2A6 (Homo sapiens, UniProt P11509)
Test description: Coumarin metabolism assay
pKi: −log10 of the molar value.
Measured attribute: pKi

Molecule	Value modifier	Data value
Cc1cccc(Cl)c1CN1CCOCC1 [Compound 9, 4-(2-chloro-6-methylbenzyl)morpholine]	=	3.53
Clc1cccc(Cl)c1Cn1ccnc1 [Compound 17, 1-(2,6-dichlorobenzyl)-1H-imidazole]	=	6.05
Clc1ccc(CN2CCOCC2)cc1 [Compound 11, 4-(4-chlorobenzyl)morpholine]	=	3.35
CC1CN(Cc2cccc(Cl)c2Cl)CC(C)O1 (stereo not shown) [Compound 14]	≤	3.00
CN1CCN(Cc2ccccc2Cl)CC1 [Compound 21, 1-(2-chlorobenzyl)-4-methylpiperazine]	≤	3.00
Brc1ccccc1CN1CCOCC1 [Compound 4, 4-(2-bromobenzyl)morpholine]	≤	3.00
CC(c1ccccc1Cl)N1CCOCC1 (stereo not shown) [Compound 23, 4-(1-(2-chlorophenyl)ethyl)morpholine]	=	4.01
c1csc(CN2CCOCC2)c1 [Compound 19, 4-(thiophen-2-ylmethyl)morpholine]	=	3.57
Clc1ccccc1CN1CCSCC1 [Compound 18, 4-(2-chlorobenzyl)thiomorpholine]	=	3.32
Clc1ccccc1CN1CCOCC1 [Compound 3, 4-(2-chlorobenzyl)morpholine]	≤	3.00
Fc1cccc(Cl)c1CN1CCOCC1 [Compound 7, 4-(2-chloro-6-fluorobenzyl)morpholine]	=	3.54
Fc1ccccc1CN1CCOCC1 [Compound 2, 4-(2-fluorobenzyl)morpholine]	≤	3.00
Clc1ccsc1CN1CCOCC1 [Compound 20]	=	3.36
